B1: Homeobox protein cut-like 1, residues 548 to 629; numbered along this chain, P39880 (parent)
chain: GEEMDTAEIARQVKEQLIKHNIGQRIFGHYVLGLSQGSVSEILARPKPWNKLTVRGKEPFHKMKQFLSDEQNILALRSIQGR

Variants of: B1
Assay: abundance fitness (aPCA) (normalised: wild type 0, dead -1); higher = more abundant; growth selection in yeast, the domain comes from the species named
Conditions: Homo sapiens
abundance fitness: recorded values

Check out these entries, answers already filled in.
GEEMDTAEIARQVKEQLIKHNIGQRIFGHYVLGLSQVSVSEILARPKPWNKLTVRGKEPFHKMKQFLSDEQNILALRSIQGR | -0.051
GEEMDTAEIARQVKEQLIKHNIGQRIFGHYVLGLSQGSVSCILARPKPWNKLTVRGKEPFHKMKQFLSDEQNILALRSIQGR | -0.219
GEEMDTAEIARQVKEQLIKHNIGQRIFGHYVLGLSQGSVSEILARGKPWNKLTVRGKEPFHKMKQFLSDEQNILALRSIQGR | -0.77
GEEMDTAEIARQVKEQLIKHNIGQRIFGHYVLGLSQGSVSEILARPKPWNKLTVRGKEPFHKMKQFLSAEQNILALRSIQGR | -0.174
GEEWDTAEIARQVKEQLIKHNIGQRIFGHYVLGLSQGSVSEILARPKPWNKLTVRGKEPFHKMKQFLSDEQNILALRSIQGR | -0.23

// next entry
Measured abundance fitness of `GEEMDTAEIARQVKEQLIKHNIGQRIFGHYVLGLSQGSVSEILARPKPWNKLTVRGKEPFHKMKQFLSDEQNIMALRSIQGR` : -0.074
